Measured n (number of binding sites) values are reported for all entries that follow.
- Tgt: PTP1B (Homo sapiens)
- Protocol Details: Fluorescence quenching measurement of binding affinity
- Condition Summary: fluorescence quenching
Readout: n (number of binding sites)

- CC1(C)C=Cc2c(cc(O)c3c2O[C@H](c2ccc(O)cc2)[C@@H](O)C3=O)O1 [Compound 5, yukovanol]: 1.20
- CC1(C)C=Cc2c(cc(O)c3c(=O)cc(-c4ccc(O)cc4)oc23)O1 [Compound 7, atalantoflavone]: 0.93
- CC1(C)C=Cc2c(cc(O)c3c2O[C@H](c2ccccc2)[C@H](O)C3=O)O1 [Compound 2]: 1.16
- O=c1cc(-c2ccc(O)cc2)oc2cc(O[C@@H]3O[C@H](CO)[C@@H](O)[C@H](O)[C@H]3O)cc(O)c12 [Compound 13, apigenin-7-O-β-D-glucopyranoside]: 0.97
- CC1(C)C=Cc2c(cc(O)c3c2O[C@H](c2ccccc2)[C@@H](O)C3=O)O1 [Compound 1]: 1.09
- O=C1c2c(O)cc(O)cc2O[C@H](c2ccc(O)cc2)[C@H]1O [Compound 6, dihydrokaempferol]: 0.79
- O=c1cc(-c2ccc(O)cc2)oc2cc(O)cc(O)c12 [Compound 8, apigenin]: 1.02
- O=c1cc(-c2ccc(O)cc2O)oc2cc(O)cc(O)c12 [Compound 10, norartocarpetin]: 1.06

---

- Tgt: PTP1B (Homo sapiens)
- Sequence (P18031 1-435): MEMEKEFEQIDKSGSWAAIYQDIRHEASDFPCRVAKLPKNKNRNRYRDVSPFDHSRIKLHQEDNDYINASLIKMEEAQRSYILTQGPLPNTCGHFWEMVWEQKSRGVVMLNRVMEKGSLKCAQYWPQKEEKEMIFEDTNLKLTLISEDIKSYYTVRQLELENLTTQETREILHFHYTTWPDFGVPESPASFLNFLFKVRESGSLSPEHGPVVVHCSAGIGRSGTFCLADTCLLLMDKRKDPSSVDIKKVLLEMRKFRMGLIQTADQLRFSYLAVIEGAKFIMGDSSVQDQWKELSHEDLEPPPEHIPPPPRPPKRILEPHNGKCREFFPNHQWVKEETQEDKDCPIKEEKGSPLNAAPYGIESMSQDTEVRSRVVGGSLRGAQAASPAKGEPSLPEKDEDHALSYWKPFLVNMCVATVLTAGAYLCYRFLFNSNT
- Protocol Details: Enzyme kinetic assay
- Format: biochemical
- Condition Summary: KI, inhibition constant for free enzyme, secondary plots
pKi: −log10 of the molar value.
Catalogue of pKi readings, one per entry.
Readout: pKi

* O=c1cc(-c2ccc(O)cc2)oc2cc(O[C@@H]3O[C@H](CO)[C@@H](O)[C@H](O)[C@H]3O)cc(O)c12 [Compound 13, apigenin-7-O-β-D-glucopyranoside] | 6.74
* O=c1cc(-c2ccc(O)cc2O)oc2cc(O)cc(O)c12 | 5.57

---

- Tgt: PTP1B (Homo sapiens)
pKd: −log10 of the molar value.
Readout: pKd

• CC1(C)C=Cc2c(cc(O)c3c2O[C@H](c2ccccc2)[C@@H](O)C3=O)O1 = 4.56
• O=c1cc(-c2ccc(O)cc2)oc2cc(O)cc(O)c12 = 3.11
• O=c1cc(-c2ccc(O)cc2O)oc2cc(O)cc(O)c12 = 3.08
